Recorded values, source patent US20230099344A1.

Molecular target: IRAK-4 (Homo sapiens)
Sequence (Q9NWZ3 1-460): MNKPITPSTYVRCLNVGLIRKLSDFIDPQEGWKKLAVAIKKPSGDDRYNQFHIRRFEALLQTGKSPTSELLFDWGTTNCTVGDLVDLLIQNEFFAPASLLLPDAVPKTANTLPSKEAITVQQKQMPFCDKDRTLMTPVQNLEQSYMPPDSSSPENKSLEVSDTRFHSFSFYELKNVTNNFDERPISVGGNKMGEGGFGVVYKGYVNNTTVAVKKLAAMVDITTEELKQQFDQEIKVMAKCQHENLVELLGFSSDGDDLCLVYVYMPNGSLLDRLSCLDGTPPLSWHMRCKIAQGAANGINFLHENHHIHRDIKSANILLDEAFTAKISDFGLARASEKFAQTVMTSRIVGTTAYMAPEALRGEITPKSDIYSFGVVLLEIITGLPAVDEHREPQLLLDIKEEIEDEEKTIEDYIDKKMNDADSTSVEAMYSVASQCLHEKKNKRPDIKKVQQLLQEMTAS
Assay: IRAK-4 ELISA, OCI-Ly10 degradation
Format: cell-based
Design: endogenous in cells
Conditions: OCI-Ly10 cells, treated overnight
Property: DC50

Please review the following examples before continuing.
Molecule	Property	Result
O=C1CCC(NC(=O)c2ccc(N3CCC(CN4CCC(n5cc6cc(NC(=O)c7cnn8cccnc78)c(OCC7CC7)cc6n5)CC4)CC3)cc2F)C(=O)N1 (stereo not drawn) [Example 290]	DC50	50 to 100 nM
O=C1CCC(N2C(=O)c3ccc(N4CC(COC[C@H](F)Cn5cc6cc(NC(=O)c7cnn8cccnc78)c(OCC7CC7)cc6n5)C4)cc3C2=O)C(=O)N1 (stereo partly drawn)	DC50	≥ 100 nM

Would you kindly look at the next entry?
// fetch DC50 given entry O=C1CCC(N2C(=O)c3ccc(N4CC(CN5CCC(N6Cc7cc(NC(=O)c8cnn9cccnc89)c(N8CCOCC8)nc7C6=O)CC5)C4)cc3C2=O)C(=O)N1 (stereo not drawn)
50 to 100 nM

* * *

target: IRAK-4 (Homo sapiens, UniProt Q9NWZ3); test: IRAK-4 ELISA, PBMC degradation; assay type: cell-based; parameters: endogenous in cells; host or cells: PBMC; settings: treated overnight
Property: PBMC DC90

// fetch PBMC DC90 given entry CC(C)Oc1cc2c(cc1NC(=O)c1cnn3cccnc13)CN(C1CCN(CC3CN(c4ccc5c(c4)C(=O)N(C4CCC(=O)NC4=O)C5=O)C3)CC1)C2=O (centres unmarked)
5 nM

* * *

Biological target: IRAK-4 (Homo sapiens, UniProt Q9NWZ3)
Sequence (Q9NWZ3 1-460): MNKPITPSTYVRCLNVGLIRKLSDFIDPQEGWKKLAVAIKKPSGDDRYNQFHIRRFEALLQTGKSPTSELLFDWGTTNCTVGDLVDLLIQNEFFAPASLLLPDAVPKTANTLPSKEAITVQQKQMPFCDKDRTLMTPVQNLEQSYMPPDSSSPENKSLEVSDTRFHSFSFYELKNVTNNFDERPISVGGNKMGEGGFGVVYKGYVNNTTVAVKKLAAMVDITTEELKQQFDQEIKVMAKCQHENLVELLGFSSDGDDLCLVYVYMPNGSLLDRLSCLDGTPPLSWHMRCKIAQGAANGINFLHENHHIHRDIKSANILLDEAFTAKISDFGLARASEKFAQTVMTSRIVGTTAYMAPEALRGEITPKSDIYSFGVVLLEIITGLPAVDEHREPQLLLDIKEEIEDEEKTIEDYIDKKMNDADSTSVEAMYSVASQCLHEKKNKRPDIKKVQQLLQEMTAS
Experiment: IRAK-4 ELISA, PBMC degradation
Format: cell-based
Design: endogenous in cells; host or cells: PBMC
Conditions: treated overnight
Examples of compounds with documented DC50 follow.

Please review the following examples before continuing.
Compound	DC50
CC(C)Oc1cc2c(cc1NC(=O)c1cnn3cccnc13)CN([C@H]1CC[C@H](N(C)C3CN(c4ccc5c(c4)CN(C4CCC(=O)NC4=O)C5=O)C3)CC1)C2=O (some centres unmarked) [Example 329]	< 1 nM
CC(C)Oc1cc2c(cc1NC(=O)c1cnn3cccnc13)CN([C@H]1CC[C@H](N3CC4(CN(c5ccc6c(c5)C(=O)N(C5CCC(=O)NC5=O)C6=O)C4)C3)CC1)C2=O (some centres unmarked) [Example 366]	1 to 5 nM
O=C1CCC(NC(=O)c2ccc(N3CC(F)(CN4CCC(N5Cc6cc(NC(=O)c7cnn8cccnc78)c(OCC7CC7)cc6C5=O)CC4)C3)cc2F)C(=O)N1 (centres unmarked) [Example 298]	≥ 10 nM
O=C1CCC(N2C(=O)c3ccc(N4CC(F)(CN5CCC(n6cc7cc(NC(=O)c8cnn9cccnc89)c(OC8CCC8)cc7n6)CC5)C4)cc3C2=O)C(=O)N1 (centres unmarked) [Example 196]	1 to 5 nM

Would you kindly look at the next entry?
// fetch DC50 given entry Cn1c(=O)n(C2CCC(=O)NC2=O)c2cccc(N3CC(CN4CCC(n5cc6cc(NC(=O)c7cnn8cccnc78)c(OCC7CC7)cc6n5)CC4)C3)c21 (centres unmarked) [Example 378]
< 1 nM
